system: NCI-H226 lung; assay: NCI-60 one-dose screen, 48 h; conditions: 10 µM
The panel holds about 83,000 compounds, 20% with a hit somewhere; the sample as a whole holds those more often. Activity calls are given as the source filed them. Rule for the calls: active = growth percent below 10; inactive = the rest.
Outcomes: True for active, False for inactive

COMPOUND: COc1cc(-c2nc(-c3nnc(-c4cccnc4)o3)c3ccccn23)cc(OC)c1OC
LABEL VALUE: False

COMPOUND: Brc1ccc(-c2cn3ccnc3c(-c3ccc(Br)cc3)n2)cc1
LABEL VALUE: False

COMPOUND: COc1ccc(-c2nsc3c2NC(=O)CC3c2ccc(Cl)cc2)cc1 (stereo not given)
LABEL VALUE: False

COMPOUND: Fc1ccc(-c2cc(C(Cl)Cl)no2)cc1
LABEL VALUE: False

COMPOUND: CCc1c(C(=O)NCc2c(O)ccc3cccc(O)c23)[nH]c(C)c1C(C)=O
LABEL VALUE: False

COMPOUND: COc1ccc(C(C)=O)cc1N1C(=O)C2C(C1=O)C1(c3ccccc3)C(=O)C2(c2ccccc2)C(c2ccc(C)cc2)=C1c1ccc(C)cc1 (stereo not given)
LABEL VALUE: False

COMPOUND: COc1nc2c(c(=O)[nH]1)C(c1ccc(Oc3ccnc4cc(Cl)ccc34)c(OC)c1)C=C(c1cc(OC)c(OC)c(OC)c1)N2 (stereo not given)
LABEL VALUE: False

COMPOUND: COc1ccc(NC(=O)c2sc3nc4c(cc3c2N)C(O)CCC4)cc1 (stereo not given)
LABEL VALUE: False

COMPOUND: Cc1ccc(S(=O)(=O)Nc2cccc3[nH]c(C(F)(F)F)nc23)cc1
LABEL VALUE: False

COMPOUND: COc1ccc(-c2ccccc2)cc1C(=O)c1ccc(-c2ccccc2)cc1
LABEL VALUE: False

COMPOUND: Cc1cc(/C=C2\SC(=Nc3ccccc3)N(C3CCCC3)C2=O)c(C)n1-c1ccc(Cl)cc1
LABEL VALUE: True

COMPOUND: Cc1ccc2oc(=O)cc(/C(=C3/C=CC=N3)c3ccc[nH]3)c2c1
LABEL VALUE: True

COMPOUND: O=C1NN(c2ccccc2)C(c2cccnc2)=N/C1=C\c1cccnc1
LABEL VALUE: False

COMPOUND: Nc1c(C(=O)NC2CCCCC2)sc2nc3c(cc12)C(=O)CCC3
LABEL VALUE: False

COMPOUND: CCCCOCCOCCOCc1cc2c(cc1Br)OCO2
LABEL VALUE: False

COMPOUND: Cc1nc2ccc(-n3c(-c4ccc(Cl)cc4)nc4ccccc4c3=O)cc2n1Cc1ccccc1
LABEL VALUE: False

COMPOUND: NS(=O)(=O)c1ccc(N2N=C(c3ccc(-c4ccccc4)cc3)CC2c2ccc(Cl)cc2)cc1 (stereo not given)
LABEL VALUE: False

COMPOUND: COc1cc(-c2cc(/C=C/C(C)=O)[nH]n2)cc(OC)c1OC
LABEL VALUE: False

COMPOUND: O=C(CCc1ccccc1)N1CCN(C(=O)CCc2ccccc2)CC1
LABEL VALUE: False

COMPOUND: N#Cc1ncc(-c2cc(F)ccc2F)c(NC2CCCCCC2)n1
LABEL VALUE: False

COMPOUND: Cc1cccc2c1O/C(=C\c1ncc([N+](=O)[O-])n1C)C2=O
LABEL VALUE: True

COMPOUND: COc1ccc(-c2csc(-c3cc(Cl)cc(Cl)c3Cl)n2)cc1
LABEL VALUE: False

COMPOUND: CNC(=O)c1cc(Oc2ccc(NC(=O)Nc3ccc(Cl)c(C(C)(C)C)c3)c(F)c2)ccn1
LABEL VALUE: False

COMPOUND: C#C[C@]1(O)CC[C@H]2[C@@H]3CC[C@H]4CC(F)(F)CC[C@]4(C)[C@H]3CC[C@@]21C
LABEL VALUE: False

COMPOUND: C=CCc1cc(Nc2c3ccc(Cl)cc3nc3ccc(OC)cc23)cc(CN(CC)CC)c1O
LABEL VALUE: False

COMPOUND: [O-]c1c[n+](-c2ccc(Cl)cc2)no1
LABEL VALUE: False

COMPOUND: O=C(NNC(=O)c1ccncc1)Nc1ccc([N+](=O)[O-])cc1
LABEL VALUE: False

COMPOUND: C#Cc1ccc(-n2c(/C=C/c3cc(OC)c(OC)c(OC)c3)nc3ncccc3c2=O)cc1
LABEL VALUE: False

COMPOUND: COc1cccc(-c2nnc(COc3ccc(-c4nc5ccccc5[nH]4)cc3OC)o2)c1
LABEL VALUE: False

COMPOUND: COc1ccc(NC(=O)CCn2cnc3c(cc(-c4ccccc4)n3-c3ccccc3)c2=O)cc1
LABEL VALUE: False

COMPOUND: O=c1cc(CSc2nnc(-c3ccccc3)n2-c2ccc(F)cc2)c2ccc3ccccc3c2o1
LABEL VALUE: False

COMPOUND: C=CCOc1ccc2c(c1)CC[C@@H]1[C@@H]2CC[C@]2(C)C(=O)/C(=N/O)C[C@@H]12
LABEL VALUE: False

COMPOUND: Cn1c([N+](=O)[O-])cnc1/C=C1\Oc2ccc(Br)cc2C1=O
LABEL VALUE: True

COMPOUND: Clc1cc(Cl)c(OCCCCCCN2CCNCC2)c(Cl)c1
LABEL VALUE: False

COMPOUND: O=C(O)c1ccc(CNc2ccc(C(=O)CCl)cc2)cc1
LABEL VALUE: False

Reference source for all entries: PubChem BioAssay (NCI)
